System: PPARg:RXRa IVT, anti-PPARg (NR concentration 270 nM, RXRa partner concentration 90 nM)
Test: PBM binding z-score (relative to random genomic background probes); higher = stronger binding; sequences stand for … in GC…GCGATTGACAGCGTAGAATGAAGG
Cut-off 4 on PBM binding z-score, inclusive. At or above means rule met; below means rule not met.

Reference set, count: 3
- Record Sequence: "GCGACTGGGGCAACGCAGGTTACCATAAGGTTGG"
  Group Label: "rule met"
- Record Sequence: "CGTCCAAGGTCAGAGAGGACAGTGAATGCCGAGT"
  Group Label: "rule not met"
- Record Sequence: "CCGACTGGGGCAAGGTTACCGTAACGCACAGCCA"
  Group Label: "rule not met"

Is PBM binding z-score for TGAATGAGGTTAAAGTTCAGGGAACGTGGCGTCG at or above 4?
rule met

Would you say CGAACGAGGGCAAGAGTTGATAGCAAATGCCGAT shows PBM binding z-score at minimum 4?
rule not met

I'd appreciate it if you could say whether CAAACTAGCTCACAGAGGTCAAAGTCCGTGCGTA has PBM binding z-score at least equal to 4.
rule not met

* * *

System: PPARg DBDmut:RXRa IVT, anti-PPARg (DBD mutation: PPARg1 K132A/R137A, NR concentration 270 nM, RXRa partner concentration 90 nM)
Assay: PBM binding z-score (relative to random genomic background probes); higher = stronger binding; sequences stand for … in GC…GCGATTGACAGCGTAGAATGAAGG
Lab note: class by PBM binding z-score, see Low = under -0.09, Medium = from -0.09 up to 0.5, High = 0.5 and over

- Record Sequence: "CCTTACGGGTCACTCCAGGTGATAGCATCGGAGT"
  Group Label: "Medium"

Query sequence follows.
Note: place this sequence into its band. Item: TCTTGTAGATCAAGCTGGTTAAGAAAGCCTGAGT
Medium

* * *

Test system: LXRa homodimer (NR concentration 270 nM)
Assay: PBM binding z-score (relative to random genomic background probes); higher = stronger binding; sequences stand for … in GC…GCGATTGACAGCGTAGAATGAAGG
A collection of sequences and their measured PBM binding z-score
Give the value as a plain number.

- Record Sequence: "CCGACTGGGGCAGAAAGCTTACCATACCATCCGG"
  Reported: -0.778

Now let's try a different one.
Fill blank: measured PBM binding z-score of the sequence GCTAGCAGGCCATTTGGGTCACTCGATGACGGGC is ____.
-0.738

* * *

Tested on: RARb homodimer (NR concentration 270 nM)
Test: PBM binding z-score (relative to random genomic background probes); higher = stronger binding; sequences stand for … in GC…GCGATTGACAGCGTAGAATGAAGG
Short version: PBM binding z-score at least 1 is Satisfied, less is Not satisfied.

Look over these answered cases.
- Record Sequence: "CAAACTAGATCACCGGAAGGTCAAAGTCCGCATG"
  Group Label: "Satisfied"
- Record Sequence: "ATCTCTAGGTAAAGATAGTTCAGAGAATGCAAAT"
  Group Label: "Not satisfied"
- Record Sequence: "TCTTGTAGATCAACAGGCGGTTAAGAAAGATCGA"
  Group Label: "Not satisfied"

Does CCAGACAGGAGAGAAGGTAACTCAGCCTCGATTA have a reported PBM binding z-score of at least 1?
Not satisfied

Quick check, PBM binding z-score >= 1? TAATATAGGTAAAAGGTGAAAGTCGGTGTGGTAA
Satisfied
